These data points were gathered from the supplement of paper PMC11780869.

Test system: Bacillus subtilis
protocol-text: cleaved RNA product abundance (RNA/gDNA barcode ratio) relative to median wild-type variant (ratio to wild type); higher = more accumulation of the downstream cleavage product
measurement-context: experiment (reporter, strain, medium): exp 8a: truncated aprE reporter, strain BJT201 with 2% xylose (RNase J1 expressed); cleavage site: glnRA (positions -5 to +31 mutated)
Categorize each record by its cleaved RNA product abundance using Low = under 0.4, Mid = from 0.4 up to 0.8, High = 0.8 and over

[[record]]
seq = "CGACATGTCCCGCTTCTTTCATTATTCCGTTAACAACTGTTTTGCTATATACATTTACCTTTTAAGAGGAGGAAT"
qualitative_label = "Low"


Any idea which band CGACATGTCCCGCTTCTTTCATTATTCCGTTAGCAACTGTTTTGCTATATACACTTACCTTTTAAGAGGAGGAAT is in?
High

Which bin should I file CGACATGTCCCGCTTCTTTCATTAATCCGTTAGCAATTGTTTTGCTATATACATTTGCCTTTTAAGAGGAGGAAT under?
Low

Band for the recorded cleaved RNA product abundance of CGACATGTCCCGCTTCTTTCATTAATCCGTTAGCAACTGTATTGGTATATACATTTACCTTTTAAGAGGAGGAAT ?
Low

Returns: class label. Input: CGACATGTCCCGCTTCTTTCATTAATCCGTTAGCAACTTTTTTGCTATATACATTTACTTTTTAAGAGGAGGAAT
High

Note: place this sequence into its band. Item: CGACATGTCCCGCTTCTTTCATTAATACGTTAGCAACTTTTTTGCTATATACATTTACCTTTTAAGAGGAGGAAT
Mid

Which band does CGACATGTCCCGCTTCTTTCATTAATCCTCTAGCAACTGTTTTGCTATATACATTTACCTTTTAAGAGGAGGAAT fall in?
Mid
